Recorded pIC50, one value per entry.
ASSAY_TARGET: GPR6 (Homo sapiens, UniProt P46095)
Construct: expressed in transfected cells; host or cells: CHO cells
Sequence (P46095 whole entry): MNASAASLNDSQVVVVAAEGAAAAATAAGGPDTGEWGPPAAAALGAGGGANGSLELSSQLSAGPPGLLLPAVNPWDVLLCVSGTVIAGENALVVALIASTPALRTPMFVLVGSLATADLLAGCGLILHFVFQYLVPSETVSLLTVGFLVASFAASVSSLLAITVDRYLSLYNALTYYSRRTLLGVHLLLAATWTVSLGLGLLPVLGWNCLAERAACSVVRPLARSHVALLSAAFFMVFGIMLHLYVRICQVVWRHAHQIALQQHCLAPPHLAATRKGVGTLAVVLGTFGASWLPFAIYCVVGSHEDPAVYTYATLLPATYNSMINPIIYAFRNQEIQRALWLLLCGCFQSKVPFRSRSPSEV
MEASUREMENT_PROTOCOL: GPR6 antagonist functional cAMP assay (LANCE Ultra cAMP TR-FRET, CHO cells stably expressing GPR6)
Type: cell-based
EXPERIMENTAL_PARAMETERS: CHO cells stably expressing GPR6, cAMP assay (Example 24)
pIC50: −log10 of the molar value.

{"columns": ["MOLECULE", "RECORDED_VALUE"],
 "data": [
  ["CC(=O)N1CCc2nc(N3CCC(Oc4ccccc4)C3)c(-c3cnn(C)c3)nc2C1 (stereo not drawn) [Compound 418]", "4.52 to 6.00"]
]}

# input for lookup
Data request, read-out pIC50, for CC(=O)N1CC=C(c2nc3c(nc2N2CCC(Oc4ccc(F)cc4F)CC2)CCN(C(C)=O)C3)C1 [Compound 72]
4.52 to 6.00

* * *

ASSAY_TARGET: GPR6 (Homo sapiens, UniProt P46095)
Construct: expressed in transfected cells; host or cells: CHO cells
MEASUREMENT_PROTOCOL: GPR6 antagonist functional cAMP assay (LANCE Ultra cAMP TR-FRET, CHO cells stably expressing GPR6)
Format: cell-based
EXPERIMENTAL_PARAMETERS: CHO cells stably expressing GPR6, cAMP assay (Example 24)
Recorded IC50, one value per entry.

Recorded IC50, per entry:
{"columns": ["COMPOUND", "IC50"],
 "data": [
  ["Cc1cncc2nc(-c3cnn(C)c3)c(N3CCC(Oc4ccc(F)cc4F)CC3)nc12", "100 to 1000 nM"],
  ["CCn1cc(-c2nc3c(nc2N2CCC(Oc4cc(Cl)ccc4Cl)CC2)CCN(C(C)=O)C3)cn1", "100 to 1000 nM"],
  ["Cn1cc(-c2nc3cnccc3nc2N2CCN(CC3CCCOC3)CC2)cn1 (stereo not shown)", "≥ 30000 nM"],
  ["CCn1cc(-c2nc3c(nc2N2CCC(Oc4ccc(F)cc4F)CC2)CCN(C(=O)OC(C)(C)C)C3)cn1", "1000 to 30000 nM"],
  ["CC(=O)N1CCc2nc(N3CCC(C(=O)Nc4ccc(F)cc4)C3)c(-c3cnn(C)c3)nc2C1 (stereo not shown)", "≥ 30000 nM"]
]}

# input for lookup
Data request, read-out IC50, for CC(C)OC(=O)N1CCc2nc(N3CCC(Oc4ccc(F)cc4F)CC3)c(-c3cnn(C4CCCCO4)c3)nc2C1 (stereo not shown)
1000 to 30000 nM

* * *

ASSAY_TARGET: GPR6 (Homo sapiens)
Construct: expressed in transfected cells; host or cells: CHO cells
MEASUREMENT_PROTOCOL: GPR6 antagonist functional cAMP assay (LANCE Ultra cAMP TR-FRET, CHO cells stably expressing GPR6)
Format: cell-based
EXPERIMENTAL_PARAMETERS: CHO cells stably expressing GPR6, cAMP assay
pIC50: −log10 of the molar value.
Recorded pIC50, one value per entry.

Recorded pIC50, per entry:
{"columns": ["COMPOUND", "ASSAY_TARGET", "pIC50"],
 "data": [
  ["CC(=O)N1CCc2nc(N3CCC(Cn4ccccc4=O)CC3)c(-c3cnn(C)c3)nc2C1", "GPR6 (Homo sapiens)", "4.52 to 6.00"],
  ["CC(=O)N1CCc2nc(N3CCC(Oc4ccc(F)cc4C#N)CC3)c(-c3cnn(C)c3)nc2C1", "GPR6 (Homo sapiens)", "6.00 to 7.00"]
]}

Data request, read-out pIC50, for COC[C@@H]1C[C@H]1c1nc2c(nc1N1CCC(Oc3ccc(F)cc3F)CC1)CCN(C(C)=O)C2
4.52 to 6.00

Data request, read-out pIC50, for CC(=O)N1CCc2nc(N3CCN(C(CO)(CO)c4cc(F)ccc4F)CC3)c(-c3cnn(C)c3)nc2C1
6.00 to 7.00

Data request, read-out pIC50, for CCOc1ccc(OC2CCN(c3nc4c(nc3-c3cnn(C)c3)CN(C(C)=O)CC4)CC2)c(F)c1
6.00 to 7.00

Data request, read-out pIC50, for CC(C)(O)C(O)c1cc2nc(-c3cnn(C(F)F)c3)c(N3CCC(Oc4ccc(F)cc4F)CC3)nc2cn1 (single isomer, unassigned) [Compound 583]
> 7.00

Data request, read-out pIC50, for CC(C)(O)[C@H](O)c1cc2nc(N3CCC(Oc4ccc(F)cc4F)CC3)c(-c3cnn(CF)c3)nc2cn1 (single isomer, unassigned)
6.00 to 7.00

Data request, read-out pIC50, for CC(=O)N1CCc2nc(N3CCC(C(O)c4ccc(F)cc4F)CC3)c(-c3cnn(C)c3)nc2C1 (centres unmarked)
6.00 to 7.00

Data request, read-out pIC50, for Cn1cc(-c2nc3cc(C(O)C(C)(C)O)ncc3nc2N2CCC(Oc3ccc(F)cc3F)CC2)cn1 (single isomer, unassigned) [Compound 562]
> 7.00

Data request, read-out pIC50, for Cn1cc(-c2nc3cnc([C@@H](O)C(C)(C)O)cc3nc2N2CCN(Cc3ccc(F)cc3F)CC2)cn1 (single isomer, unassigned)
6.00 to 7.00

Data request, read-out pIC50, for CC(C)(O)C(O)c1cc2nc(N3CCN(Cc4ccccc4F)CC3)c(-c3cnn(CF)c3)nc2cn1 (centres unmarked)
6.00 to 7.00

* * *

ASSAY_TARGET: GPR6 (Homo sapiens, UniProt P46095)
Construct: expressed in transfected cells; host or cells: CHO cells
MEASUREMENT_PROTOCOL: GPR6 antagonist functional cAMP assay (LANCE Ultra cAMP TR-FRET, CHO cells stably expressing GPR6)
Format: cell-based
EXPERIMENTAL_PARAMETERS: CHO cells stably expressing GPR6, cAMP assay
Recorded IC50, one value per entry.

Recorded IC50, per entry:
{"columns": ["COMPOUND", "PROPERTY", "RECORDED_VALUE"],
 "data": [
  ["CC(=O)N1CCc2nc(N3CCC(C(=O)c4ccc(F)cc4F)CC3)c(-c3cnn(C)c3)nc2C1", "IC50", "100 to 1000 nM"],
  ["CCn1cc(-c2nc3cc(C(O)C(C)(C)O)ncc3nc2N2CCC(Oc3ccc(F)cc3F)CC2)cn1 (single isomer, unassigned) [Compound 589]", "IC50", "< 100 nM"],
  ["CC(=O)N1CCc2nc(N3CCN(C(O)c4cocn4)CC3)c(-c3cnn(C)c3)nc2C1 (centres unmarked)", "IC50", "≥ 30000 nM"],
  ["CC(C)(O)C(C)(O)c1cc2nc(N3CCN(Cc4ccc(F)cc4F)CC3)c(-c3cnn(C4CC4)c3)nc2cn1 (centres unmarked)", "IC50", "100 to 1000 nM"]
]}

Data request, read-out IC50, for CC(=O)N1CCc2nc(N3CCN(Cc4cc(F)ccc4Cl)CC3)c(-c3cnn(C)c3)nc2C1
100 to 1000 nM

Data request, read-out IC50, for CC(=O)N1CCc2nc(N3CCN(C(=O)c4ccc(Cl)c(C)c4)CC3)c(-c3cnn(C)c3)nc2C1
1000 to 30000 nM

Data request, read-out IC50, for CC(=O)N1CCc2nc(N3CCN(Cc4ccnn4C)CC3)c(-c3cnn(C)c3)nc2C1
≥ 30000 nM

* * *

ASSAY_TARGET: GPR6 (Homo sapiens)
Construct: expressed in transfected cells; host or cells: CHO cells
MEASUREMENT_PROTOCOL: GPR6 antagonist functional cAMP assay (LANCE Ultra cAMP TR-FRET, CHO cells stably expressing GPR6)
Type: cell-based
EXPERIMENTAL_PARAMETERS: CHO cells stably expressing GPR6, cAMP assay
pIC50: −log10 of the molar value.
PROPERTY: pIC50

{"columns": ["COMPOUND", "RECORDED_VALUE"],
 "data": [
  ["CCn1cc(-c2nc3c(nc2N2CCC(Oc4ccc(F)cc4F)CC2)CCN(C(=O)C2COCCN2)C3)cn1 (stereo not shown)", "> 7.00"],
  ["CC(=O)N1CCc2nc(N3CCN(Cc4ccncc4)CC3)c(-c3cnn(C)c3)nc2C1", "4.52 to 6.00"]
]}

Data request, read-out pIC50, for CC(=O)N1CCc2nc(N3CCC(C(C)(O)c4ccc(F)cc4F)CC3)c(-c3cnn(C)c3)nc2C1 (stereo not shown)
4.52 to 6.00

Data request, read-out pIC50, for CCn1cc(-c2nc3cnc([C@H](O)C(C)(C)O)cc3nc2N2CCC(Oc3ccc(F)cc3F)CC2)cn1 (single isomer, unassigned)
> 7.00

* * *

ASSAY_TARGET: GPR6 (Homo sapiens)
Construct: expressed in transfected cells; host or cells: CHO cells
MEASUREMENT_PROTOCOL: GPR6 antagonist functional cAMP assay (LANCE Ultra cAMP TR-FRET, CHO cells stably expressing GPR6)
Assay type: cell-based
EXPERIMENTAL_PARAMETERS: CHO cells stably expressing GPR6, cAMP assay (Example 24)
PROPERTY: IC50

Recorded IC50, per entry:
{"columns": ["COMPOUND", "IC50"],
 "data": [
  ["CC(=O)N1CCc2nc(N3CCC(Oc4ccc(F)cc4F)CC3)c(C3CCCOC3)nc2C1 (stereo not shown)", "1 to 30 µM"],
  ["CN1CCc2nc(N3CCC(Oc4ccc(F)cc4F)CC3)c(-c3cnn(C4CCCCO4)c3)nc2C1 (stereo not shown)", "1 to 30 µM"],
  ["Cn1cc(-c2nc3cnccc3nc2N2CCN(CC3CCC(F)(F)CC3)CC2)cn1", "1 to 30 µM"]
]}

Look up IC50 with GPR6 (Homo sapiens) for this compound: CC(=O)N1CCc2nc(N3CCC(Oc4cc(F)cc(F)c4)CC3)c(-c3cnn(C)c3)nc2C1
1 to 30 µM

Look up IC50 with GPR6 (Homo sapiens) for this compound: Cn1cc(-c2nc3cncc(N)c3nc2N2CCC(Oc3ccc(F)cc3F)CC2)cn1
0.1 to 1 µM

Look up IC50 with GPR6 (Homo sapiens) for this compound: COc1cncc(-c2nc3cnc(Cl)cc3nc2N2CCN(Cc3ccc(F)cc3F)CC2)n1
1 to 30 µM
